Origin of the recorded values: patent US20220062240A1

molecular target: MYLK4 (Homo sapiens, UniProt Q86YV6)
Sequence (Q86YV6 whole entry): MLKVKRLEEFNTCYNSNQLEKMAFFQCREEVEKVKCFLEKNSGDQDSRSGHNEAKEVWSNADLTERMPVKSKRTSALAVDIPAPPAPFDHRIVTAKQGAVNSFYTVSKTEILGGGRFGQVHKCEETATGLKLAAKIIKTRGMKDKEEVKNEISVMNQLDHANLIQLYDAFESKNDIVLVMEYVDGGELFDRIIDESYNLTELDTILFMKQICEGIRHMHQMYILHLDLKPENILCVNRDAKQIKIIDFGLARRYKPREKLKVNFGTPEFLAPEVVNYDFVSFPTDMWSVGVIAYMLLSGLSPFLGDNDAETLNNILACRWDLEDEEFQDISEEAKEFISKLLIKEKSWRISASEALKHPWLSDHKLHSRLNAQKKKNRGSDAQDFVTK
endpoint: pIC50
Scale: negative log10 of molar concentration, which is what pIC50 denotes.

Look up pIC50 for this compound: CN1CCN(c2cc(C(=O)Nc3cc4cc(-c5cnn(C)c5)ccc4cn3)ccn2)CC1 [Compound 12]
7.52

###

Target sequence: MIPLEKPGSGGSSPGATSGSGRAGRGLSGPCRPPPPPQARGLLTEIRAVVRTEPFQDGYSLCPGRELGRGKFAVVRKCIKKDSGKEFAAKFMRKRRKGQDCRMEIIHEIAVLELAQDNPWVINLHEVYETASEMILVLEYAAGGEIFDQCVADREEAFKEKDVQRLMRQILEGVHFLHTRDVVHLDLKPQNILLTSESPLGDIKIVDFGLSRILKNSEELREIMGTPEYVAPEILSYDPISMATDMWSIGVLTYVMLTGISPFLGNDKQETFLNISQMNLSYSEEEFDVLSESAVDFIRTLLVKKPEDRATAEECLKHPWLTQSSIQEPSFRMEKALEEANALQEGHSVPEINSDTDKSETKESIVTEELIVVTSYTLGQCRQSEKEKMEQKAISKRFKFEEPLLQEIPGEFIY
endpoint: pIC50
Scale: negative log10 of molar concentration, which is what pIC50 denotes.

Look up pIC50 for this compound: CN1CCN(c2cc(C(=O)Nc3cc4cc(-c5cnn(C)c5)ccc4cn3)ccn2)CC1 [Compound 12]
7.36
